Listed next: entries and their corresponding kon.
- TARGET: T1, cynomolgus PD-1 (#PD1-C52H5, AcroBiosystems) (cynomolgus monkey, UniProt B0LAJ3 25-170)
- T1 construct: bought; also called cynomolgus monkey PD-1; not shown: the vendor's tag on the recombinant protein (AcroBiosystems #PD1-C52H5)
- T1 sequence (B0LAJ3 entry or part of it limits assumed, form in doubt): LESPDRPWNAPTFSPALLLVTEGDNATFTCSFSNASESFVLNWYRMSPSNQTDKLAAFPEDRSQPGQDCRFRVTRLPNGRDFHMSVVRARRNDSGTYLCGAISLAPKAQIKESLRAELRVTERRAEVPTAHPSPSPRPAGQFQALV
- METHOD_SUMMARY: SPR, PD-1 on captured IgG1
Could you give me the number in M⁻¹ s⁻¹? Just the number is fine.

**Query** Supply measured kon of KWH245 (antibody, human IgG1, V domains shown, human IgG1) VH: EVQLLESGGGLVQPGGSLRLSCAASGFTFSINAMTWVRQAPGKGLEWVSTISGSGFSTYYADSLKGRFTISRDNSKNTLYLQMNSLRAEDTAVYYCAKEVYGDYWGQGTLVTVSS VL: RSVLTQPPSASGTPGQRVSISCSGASSNIGSQSVFTYQQLPGTAPKLLIYSNNQRPSGVPDRFSGSKSGTSASLAISGLRSEDEADYYCAAWDDSLSIWVFGGGTKLTVL in your reply.
**Result** 281000

**Query** Supply measured kon of GZZ692 (antibody, human IgG1, V domains shown, human IgG1) VH: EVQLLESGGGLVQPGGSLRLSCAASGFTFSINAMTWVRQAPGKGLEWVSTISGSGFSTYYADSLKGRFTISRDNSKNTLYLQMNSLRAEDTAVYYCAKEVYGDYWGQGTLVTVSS VL: RSVLTQPPSASGTPGQRVSISCSGASSNIGSQSVFWYQQLPGTAPKLLGYSNNQRPSGVPDRFSGSKSGTSASLAISGLRSEDEADYYCAAWDDSLSIWVFGGGTKLTVL in your reply.
**Result** 340000

**Query** Supply measured kon of 21A08Ap1 (antibody, human IgG1, V domains shown, human IgG1; also called anti-PD-1 antibody clone 21A08Ap1) VH: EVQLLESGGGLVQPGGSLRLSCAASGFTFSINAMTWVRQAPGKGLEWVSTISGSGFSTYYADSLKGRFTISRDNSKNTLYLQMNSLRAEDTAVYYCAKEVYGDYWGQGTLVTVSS VL: RSVLTQPPSASGTPGQRVSISCSGASSNIGSQSVFWYQQLPGTAPKLLIYSNNQRPSGVPDRFSGSKSGTSASLAISGLRSEDEADYYCAAWDDSLSIWVFGGGTKLTVL in your reply.
**Result** 206000

**Query** Supply measured kon of JOH712 (antibody, human IgG1, V domains shown, human IgG1) VH: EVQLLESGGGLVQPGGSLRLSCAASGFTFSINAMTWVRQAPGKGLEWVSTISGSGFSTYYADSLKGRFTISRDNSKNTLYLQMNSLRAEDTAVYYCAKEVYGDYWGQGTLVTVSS VL: RSVLTQPPSASGTPGQRVSISCSGASSNIGSQSVFWYQQHPGTAPKLLIYSNNQRPSGVPDRFSGSKSGTSASLAISGLRSEDEADYYCAAWDDSLSIWVFGGGTKLTVL in your reply.
**Result** 227000

**Query** Supply measured kon of KOW427 (antibody, human IgG1, V domains shown, human IgG1) VH: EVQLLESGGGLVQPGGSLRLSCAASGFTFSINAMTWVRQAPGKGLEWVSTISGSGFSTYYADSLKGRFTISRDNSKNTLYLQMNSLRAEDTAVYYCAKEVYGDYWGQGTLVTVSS VL: RSVLTQPPSASGTPGQRVSISCSGASSNIGSQSVFWYQQLPGTAPKLGIYSNNQRPSGVPDRFSGSKSGTSASLAISGLRSEDEADYYCAAWDDSLSIWVFGGGTKLTVL in your reply.
**Result** 233000
